# System under test: T1, HLA-A2/E7 (11-19) tetramer (human; HPV 16)
# T1 construct: also called E7(11-19) peptide-MHC tetramer; E7 (11-19)-loaded tetramer
# Protocol: tetramer flow cytometry; transfected 1:1 CD4+ and CD4+/CD8+ Jurkat-derived cells;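 also: cells transiently transfected with TCR plasmids, stained 48 h later with HLA-A*02:01 peptide-MHC tetramer plus anti-CD8 antibody, read by flow cytometry to assess CD8-independent tetramer binding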
Measurement kind: % cells in E7 tet+/CD8+ quadrant (%)
One number for each entry, in %.

Binder	Measurement kind	Observed result
TCR 49 (codon optimized, cysteine modified version) (TCR, V domains shown) V domain 1: QKEVEQNSGPLSVPEGAIASLNCTYSDRGSQSFFWYRQYSGKSPELIMFIYSNGDKEDGRFTAQLNKASQYVSLLIRDSQPSDSATYLCAVNIGTSGTYKYIFGTGTRLKVLA V domain 2: EPEVTQTPSHQVTQMGQEVILRCVPISNHLYFYWYRQILGQKVEFLVSFYNNEISEKSEIFDDQFSVERPDGSNFTLKIRSTKLEDSAMYFCASTPRYSYEQYFGPGTRLTVTE	% cells in E7 tet+/CD8+ quadrant	5.54

Batch request: % cells in E7 tet+/CD8+ quadrant for each of the following binders.
1. TCR 51 (codon optimized, cysteine modified version) (TCR, V domains shown) V domain 1: QKEVEQNSGPLSVPEGAIASLNCTYSDRGSQSFFWYRQYSGKSPELIMSIYSNGDKEDGRFTAQLNKASQYVSLLIRDSQPSDSATYLCAVNMRGGGSNYKLTFGKGTLLTVNP V domain 2: EPEVTQTPSHQVTQMGQEVILRCVPISNHLYFYWYRQILGQKVEFLVSFYNNEISEKSEIFDDQFSVERPDGSNFTLKIRSTKLEDSAMYFCAIASRVSYEQYFGPGTRLTVTE
2. TCR 42 (codon optimized, cysteine modified version) (TCR, V domains shown) V domain 1: GQQVMQIPQYQHVQEGEDFTTYCNSSTTLSNIQWYKQRPGGHPVFLIQLVKSGEVKKQKRLTFQFGEAKKNSSLHITATQTTDVGTYFCAGPDNFNKFYFGSGTKLNVKP V domain 2: EPEVTQTPSHQVTQMGQEVILRCVPISNHLYFYWYRQILGQKVEFLVSFYNNEISEKSEIFDDQFSVERPDGSNFTLKIRSTKLEDSAMYFCAKTSRSSYEQYFGPGTRLTVTE

A)
5.7
1.21
